Recorded EC50, one value per entry.
System: HCV 1a-H77 subgenomic replicon
Assay: microbe, parasite or virus in culture
Assay type: cell-based, HCV genotype 1a
Conditions: Hepatitis C virus, stable replicon, strain 1a H77, 5% FBS; read-out: 1a H77 5% FBS EC50
# include the unit after the value

[[record]]
molecule = "CS(=O)(=O)N(CC(N)=O)c1cc2oc(-c3ccc(F)cc3)c(-c3ncc[nH]3)c2cc1C1CC1 [Example 36]"
assay_value = "301 nM"

[[record]]
molecule = "CS(=O)(=O)N(CCCO)c1cc2oc(-c3ccc(F)cc3)c(-c3ncc[nH]3)c2cc1C1CC1 [Example 65]"
assay_value = "10.3 nM"

[[record]]
molecule = "CS(=O)(=O)N(CCCc1nsc(=O)[nH]1)c1cc2oc(-c3ccc(F)cc3)c(-c3ncc[nH]3)c2cc1C1CC1 [Example 178]"
assay_value = "54.4 nM"


Lab note: next molecule to report on.
Inquiry: Can you look up the measured EC50 of CC[S+]([O-])CCCN(c1cc2oc(-c3ccc(F)cc3)c(C3=NOCCN3)c2cc1C1CC1)S(C)(=O)=O (stereo not shown) [Example 144] for me?
Reply text: 39 nM

* * *

System: HCV 1a-H77 subgenomic replicon
Test: microbe, parasite or virus in culture
Type: cell-based, HCV genotype 1a
Settings: Hepatitis C virus, stable replicon, strain 1a H77, 5% FBS; read-out: 1a H77 5% FBS EC50
pEC50: −log10 of the molar value.
pEC50 vs 7: at or above is met, below is not met.

[[record]]
compound = "C[S+]([O-])CCN(c1cc2oc(-c3ccc(F)cc3)c(C3=NOCCN3)c2cc1C1CC1)S(C)(=O)=O (centres unmarked)"
assigned_label = "met"

[[record]]
compound = "CC(=O)OCCCCCN(c1cc2oc(-c3ccc(F)cc3)c(-c3ncc[nH]3)c2cc1C1CC1)S(C)(=O)=O"
assigned_label = "met"

[[record]]
compound = "Cn1ccc2cc(-c3ncc(CN(c4ccc5c(-c6ncc[nH]6)c(-c6ccccc6)oc5c4)S(C)(=O)=O)s3)ccc21"
assigned_label = "not met"

[[record]]
compound = "CS(=O)(=O)CCCN(c1cc2oc(-c3ccc(F)cc3)c(-c3ncc[nH]3)c2cc1C1CC1)S(C)(=O)=O"
assigned_label = "met"

[[record]]
compound = "CS(=O)(=O)N(Cc1cnc(-c2ccc3[nH]ccc3c2)s1)c1cc2oc(-c3ccc(F)cc3)c(-c3ncc[nH]3)c2cc1C1CC1"
assigned_label = "met"

[[record]]
compound = "CS(=O)(=O)N(CCCCF)c1cc2oc(-c3ccc(F)cc3)c(-c3ncc[nH]3)c2cc1C1CC1"
assigned_label = "met"

[[record]]
compound = "CS(=O)(=O)N(CCCN1CCOCC1)c1cc2oc(-c3ccc(F)cc3)c(C3=NOCCN3)c2cc1C1CC1"
assigned_label = "met"

[[record]]
compound = "CCOP(=O)(CCCN(c1cc2oc(-c3ccc(F)cc3)c(C3=NOCCN3)c2cc1C1CC1)S(C)(=O)=O)OCC"
assigned_label = "met"

[[record]]
compound = "CS(=O)(=O)NCCCN(c1cc2oc(-c3ccc(F)cc3)c(-c3ncc[nH]3)c2cc1C1CC1)S(C)(=O)=O"
assigned_label = "met"

[[record]]
compound = "CC(O)CCCN(c1cc2oc(-c3ccc(F)cc3)c(-c3ncc[nH]3)c2cc1C1CC1)S(C)(=O)=O (centres unmarked)"
assigned_label = "met"


Inquiry: Given CCS(=O)(=O)CCN(c1cc2oc(-c3ccc(F)cc3)c(-c3ncc[nH]3)c2cc1C1CC1)S(C)(=O)=O , state whether its pEC50 is at least 7.
Reply text: met

Inquiry: Given CS(=O)(=O)N(Cc1cnc(Br)s1)c1cc2oc(-c3ccc(F)cc3)c(-c3ncc[nH]3)c2cc1C1CC1 , state whether its pEC50 is at least 7.
Reply text: met

Inquiry: Given CC1NC(c2c(-c3ccc(F)cc3)oc3cc(N(CCS(C)(=O)=O)S(C)(=O)=O)c(C4CC4)cc23)=NO1 (centres unmarked) , state whether its pEC50 is at least 7.
Reply text: met

Inquiry: Given CCS(=O)(=O)CCCN(c1cc2oc(-c3ccc(F)cc3)c(C3=NOCCN3)c2cc1C1CC1)S(C)(=O)=O , state whether its pEC50 is at least 7.
Reply text: met

Inquiry: Given CS(=O)(=O)N(Cc1cccc(C(F)(F)F)c1)c1ccc2c(-c3ncc[nH]3)c(-c3ccccc3)oc2c1 , state whether its pEC50 is at least 7.
Reply text: not met

Inquiry: Given CS(=O)(=O)N(CCCc1nnn[nH]1)c1cc2oc(-c3ccc(F)cc3)c(C3=NOCCN3)c2cc1C1CC1 , state whether its pEC50 is at least 7.
Reply text: not met

Inquiry: Given CC(C)CCN(c1cc2oc(-c3ccc(F)cc3)c(-c3ncc[nH]3)c2cc1C1CC1)S(C)(=O)=O , state whether its pEC50 is at least 7.
Reply text: met

Inquiry: Given CS(=O)(=O)N(CCCCO)c1cc2oc(-c3ccc(F)cc3)c(-c3ncc[nH]3)c2cc1C1CC1 , state whether its pEC50 is at least 7.
Reply text: met

Inquiry: Given CS(=O)(=O)N(CCC(F)(F)F)c1cc2oc(-c3ccc(F)cc3)c(C3=NOCCN3)c2cc1C1CC1 , state whether its pEC50 is at least 7.
Reply text: met

Inquiry: Given C[S+]([O-])CCCN(c1cc2oc(-c3ccc(F)cc3)c(C3=NOCCN3)c2cc1C1CC1)S(C)(=O)=O (centres unmarked) , state whether its pEC50 is at least 7.
Reply text: met
